- procedure-summary: Cytotoxicity evaluation using the SRB assay
- details: human, CC50 (nM), Table 1; inhibition of cell growth of host A549 cells by 50%; triplicate
Please provide measured CC50 at 2 days for the entries that follow.
Give bare numbers, in nM.

compound	CC50 at 2 days, nM
COc1cc2c(O[C@H]3OC[C@](O)(CO)[C@H]3O)c3c(c(-c4ccc5c(c4)OCO5)c2cc1OC)C(=O)OC3 [Compound 19]	368
COc1cc2c(O[C@H]3OC[C@](O)(COC(C)=O)[C@H]3O)c3c(c(-c4ccc5c(c4)OCO5)c2cc1OC)C(=O)OC3 [Compound 23]	736
COc1cc2c(O[C@@H]3OC[C@@]4(CO)OC(C)(C)O[C@@H]34)c3c(c(-c4ccc5c(c4)OCO5)c2cc1OC)C(=O)OC3 [Compound 9]	1180
COc1cc2c(O[C@@H]3OC[C@@]4(COC(C)=O)OC(C)(C)O[C@@H]34)c3c(c(-c4ccc5c(c4)OCO5)c2cc1OC)C(=O)OC3 [Compound 11]	1260

Quick one: CC50 at 2 days of COc1cc2c(O[C@H]3OC[C@@]4(CN(C)C)OC(C)(C)O[C@@H]34)c3c(c(-c4ccc5c(c4)OCO5)c2cc1OC)C(=O)OC3 [Compound 31] ?
1400
